The measurements presented in this section are drawn from ChEMBL document CHEMBL3988442.

Each entry below carries its reported Percent Effect.
Molecular target: AMP-activated protein kinase, AMPK (Homo sapiens) (UniProt P54646+O43741+P54619+Q9UGJ0+Q9Y478+Q13131+Q9UGI9)
Experiment: AMP-dependent Kinase enzyme assay. An in vitro enzyme assay that detects ADP turnover that is directly proportional to AMPK activity. This uses naive AMPK that is activated during the assay with MK-8722
Assay type: functional
Design: scale not given: direction of the effect not stated beside the values
Settings: 30 µM
MEASUREMENT_TYPE: Percent Effect (%)

>>> print(df.to_string())
                                   compound  unit_annotation  observed_value
0             Cc1cccc(OCCC(=O)N(C)CCC#N)c1C                %            12.1
1  Cc1n[nH]c(C)c1C1CCCN1C(=O)NCC(=O)NC(C)(C)C (stereo unspecified)                %            26.9
2  Fc1ccc2c(c1)C(NCc1nnc3n1CCCCC3)CCCO2 (stereo unspecified)                %           -2.29
3  CCc1nccn1C1CCCN(C(=O)CCCNc2ncccn2)C1 (stereo unspecified)                %            4.55
4        Cn1cc(-c2cnc(N3CCCC3)nc2)cc1C(=O)O                %            4.07
5  COc1ccc(NC(=O)C(c2cccc(F)c2)N2CCOCC2)cc1 (stereo unspecified)                %            4.04

----------
Each entry below carries its reported Percent Effect.
Organism: Homo sapiens
Assay: To identify inhibition of the IFN signalling (Jak-Stat) pathway via expression of an eGFP reporter gene under the control of an IFN-stimulated response element (ISRE) containing MxA promoter.
Assay type: functional
Set-up: scale not given: direction of the effect not stated beside the values
Details: 30 µM
MEASUREMENT_TYPE: Percent Effect (%)

>>> print(df.to_string())
                                   compound  measurement_type  observed_value
0         Cc1cnn(C2CN(CC(=O)Nc3cccnc3)C2)c1    Percent Effect          -0.514
1  Cc1cc(C(C)C(=O)N2CCCN(Cc3cscn3)CC2)c(C)o1 (stereo unspecified)    Percent Effect            23.1
2  Cc1occc1C(=O)N1CCC2(CCC(=O)N(CC(N)=O)C2)CC1    Percent Effect               3
3  COc1ccc(NC(=O)NC(C)c2nc[nH]n2)cc1 (stereo unspecified)    Percent Effect           -13.4
4  CC(NC(=O)CCOc1ccccc1Cl)c1nnc2n1CCC2 (stereo unspecified)    Percent Effect             6.7
5           CCN(CC)C(=O)CCn1ncc2c(Cl)cccc21    Percent Effect           0.421

----------
Each entry below carries its reported Percent Effect.
Biological target: Chromo domain-containing protein 1 (Saccharomyces cerevisiae (strain ATCC 204508 / S288c) (Baker's yeast)) (UniProt P32657)
Sequence (P32657 whole entry, the tested form may be a part): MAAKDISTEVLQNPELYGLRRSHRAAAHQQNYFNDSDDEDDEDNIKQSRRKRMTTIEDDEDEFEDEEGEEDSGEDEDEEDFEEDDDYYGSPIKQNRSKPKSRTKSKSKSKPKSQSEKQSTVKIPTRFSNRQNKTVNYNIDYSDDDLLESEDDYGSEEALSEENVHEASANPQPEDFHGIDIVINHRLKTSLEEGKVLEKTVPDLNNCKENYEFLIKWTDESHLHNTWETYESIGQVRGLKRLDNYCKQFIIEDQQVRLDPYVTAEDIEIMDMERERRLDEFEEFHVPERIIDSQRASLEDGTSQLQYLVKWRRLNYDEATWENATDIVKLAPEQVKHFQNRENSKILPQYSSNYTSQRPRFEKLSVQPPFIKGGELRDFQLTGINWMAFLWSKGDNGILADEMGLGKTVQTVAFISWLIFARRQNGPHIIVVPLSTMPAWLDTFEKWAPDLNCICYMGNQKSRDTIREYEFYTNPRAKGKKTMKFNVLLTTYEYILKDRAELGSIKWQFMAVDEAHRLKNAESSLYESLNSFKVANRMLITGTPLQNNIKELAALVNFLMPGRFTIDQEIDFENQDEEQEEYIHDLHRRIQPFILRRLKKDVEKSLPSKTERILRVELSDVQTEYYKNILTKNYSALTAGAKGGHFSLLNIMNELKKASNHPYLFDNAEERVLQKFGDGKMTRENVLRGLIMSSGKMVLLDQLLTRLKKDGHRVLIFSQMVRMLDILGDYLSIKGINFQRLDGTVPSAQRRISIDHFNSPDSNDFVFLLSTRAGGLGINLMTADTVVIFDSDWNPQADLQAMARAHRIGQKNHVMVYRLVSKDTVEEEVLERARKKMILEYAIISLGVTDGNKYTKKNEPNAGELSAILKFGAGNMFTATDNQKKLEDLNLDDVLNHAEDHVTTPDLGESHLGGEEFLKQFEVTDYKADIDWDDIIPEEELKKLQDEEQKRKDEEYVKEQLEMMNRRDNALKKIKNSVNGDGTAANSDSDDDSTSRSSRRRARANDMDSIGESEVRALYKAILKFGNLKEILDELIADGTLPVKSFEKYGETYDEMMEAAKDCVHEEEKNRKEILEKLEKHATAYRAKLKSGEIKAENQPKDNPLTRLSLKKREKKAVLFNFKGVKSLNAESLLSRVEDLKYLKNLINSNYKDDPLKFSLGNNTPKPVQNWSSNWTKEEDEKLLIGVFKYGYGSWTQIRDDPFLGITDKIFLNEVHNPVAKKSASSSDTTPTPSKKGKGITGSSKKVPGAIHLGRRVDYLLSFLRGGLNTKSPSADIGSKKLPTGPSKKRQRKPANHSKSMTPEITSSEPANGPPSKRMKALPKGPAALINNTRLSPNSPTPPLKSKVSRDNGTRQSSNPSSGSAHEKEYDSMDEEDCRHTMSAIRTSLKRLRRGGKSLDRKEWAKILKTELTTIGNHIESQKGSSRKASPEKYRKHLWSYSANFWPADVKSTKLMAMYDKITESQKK
Experiment: ScCHD-1 Enzyme Inhibition Assay; note: in the data most compounds retested in dose-response had high values
Assay type: functional
Parameters: scale not given: direction of the effect not stated beside the values
Conditions: 30 µM
MEASUREMENT_TYPE: Percent Effect (%)

In [3]: df
Out[3]:
                                    compound  measurement_type  observed_value
 0  Cc1cc(C2CCCN(CCc3ccccn3)C2)n[nH]1 (configuration not stated)    Percent Effect           -2.02
 1  COc1cccc2c1OCC(NC(=O)NCc1cccs1)C2 (configuration not stated)    Percent Effect           -6.35
 2  Cc1scc(C(=O)N2CCC3(CC(=O)NC3=O)C2)c1-c1ccccc1 (configuration not stated)    Percent Effect           -5.21
 3  N#Cc1cccc(S(=O)(=O)N2CCCCC2CCN2CCCC2=O)c1 (configuration not stated)    Percent Effect           -4.06
 4  CCn1ncnc1C(C)NC(=O)C1CCN(C(=O)COC)CC1 (configuration not stated)    Percent Effect           -2.43
 5  Cc1nc(Cn2nc(C3CCNCC3)n(Cc3ccccc3)c2=O)no1    Percent Effect           -4.29
 6    Cc1ccc(NC2CCN(C(=O)COCC(F)(F)F)CC2)nn1    Percent Effect            3.78
 7  Cc1ccccc1CNC(=O)Cc1c(C)nc2cc(=O)[nH]n2c1C    Percent Effect           -11.1
 8  COc1ccc(C(=O)N2CCCC2c2ccco2)cc1OC (configuration not stated)    Percent Effect           -10.7
 9  CN(CCCOc1ccc(F)cc1)Cc1nc2c(cnn2C)c(=O)[nH]1    Percent Effect           -8.26
10  CC1(C(=O)N2CCOCC2)CN(Cc2ccccn2)CCO1 (configuration not stated)    Percent Effect            6.62
11  Cc1noc(C)c1CN1CC2(CCN(C(=O)c3cscn3)CC2)CC1=O    Percent Effect           -2.57

----------
Organism: Homo sapiens
Test: To identify inhibition of the IFN signalling (Jak-Stat) pathway via expression of an eGFP reporter gene under the control of an IFN-stimulated response element (ISRE) containing MxA promoter.
Format: functional
Parameters: scale not given: direction of the effect not stated beside the values
Conditions: 30 µM
Each entry below carries its reported Percent Effect.
MEASUREMENT_TYPE: Percent Effect (%)

                                   molecule  unit_annotation  observed_value
0  CN(C)C(=O)Cc1nc(CN2CCn3c(nnc3C3CC3)C2)cs1                %            7.25
1  Cc1noc2nc(C3CCN(CC4=CCCOC4)CC3)cc(C(F)F)c12                %            2.72
2  O=c1oc(-c2cccs2)nn1CC(O)c1ccc(F)cc1 (stereo unspecified)                %            18.7
3  CNC(=O)[C@@]12CCO[C@@H]1CCN(S(=O)(=O)c1cccnc1)C2                %            4.96
4  CC(OCC(F)(F)F)C(=O)N1CCCCC1 (stereo unspecified)                %            19.4
5  O=C(c1cccnc1)N1CCCC2(CCN(c3ccsc3)C2=O)C1 (stereo unspecified)                %            9.28

----------
Target: AMP-activated protein kinase, AMPK (Homo sapiens) (UniProt P54646+O43741+P54619+Q9UGJ0+Q9Y478+Q13131+Q9UGI9)
Test: AMP-dependent Kinase enzyme assay. An in vitro enzyme assay that detects ADP turnover that is directly proportional to AMPK activity. This uses naive AMPK that is activated during the assay with MK-8722
Type: functional
Design: scale not given: direction of the effect not stated beside the values
Conditions: 30 µM
MEASUREMENT_TYPE: Percent Effect

In [3]: df
Out[3]:
                                    compound  measurement_type  observed_value
 0  CCc1nccn1C1CCCN(C(=O)c2cnc3ccccc3n2)C1 (stereo unspecified)    Percent Effect           7.07%
 1    CN1CCN(C(=O)c2cnc3c(cnn3C3CCCC3)c2)CC1    Percent Effect          -2.67%
 2  Cc1ccc(S(=O)(=O)Nc2ccc(-n3cccc3C(=O)O)c(C)c2)s1    Percent Effect           12.2%
 3               CCC(=O)NCc1cc(Br)ccc1OC(F)F    Percent Effect          -2.35%
 4  CNc1cc(N2CCCC2CNCc2c[nH]nc2C(C)(C)C)ncn1 (stereo unspecified)    Percent Effect          -14.4%
 5  COCC(=O)N1CCCC2(CCN(c3ccsc3)C2=O)C1 (stereo unspecified)    Percent Effect           5.83%
 6  CN(C)C(=O)C1CN(Cc2cscn2)CCN(S(C)(=O)=O)C1 (stereo unspecified)    Percent Effect         -0.331%
 7  CCN(CC)Cc1ccc(C(=O)N2CCCCC2Cn2cccn2)o1 (stereo unspecified)    Percent Effect          0.822%
 8  O=C(c1ccc(Cl)cc1)N1CCCn2nnc(Cn3cccn3)c2C1    Percent Effect           3.45%
 9  CNC(=O)[C@@]12CCC3(CCN(C(C)=O)CC3)[C@@H]1CN(S(C)(=O)=O)C2    Percent Effect           -2.4%
10     CNC(=O)c1cnc(/C=C/c2cc(OC)cc(OC)c2)s1    Percent Effect          -2.31%

----------
Target: Protein translocase subunit SecA (Escherichia coli (strain K12))
Experiment: Assay to Identify E. coli SecA ATPase Inhibitors
Assay type: functional
Set-up: scale not given: direction of the effect not stated beside the values
Details: 30 µM
Measured potencies and affinities stand elsewhere.
Each entry below carries its reported Percent Effect.
MEASUREMENT_TYPE: Percent Effect (%)

                                    compound  observed_value
 0  Clc1cc(CN2CCCC2Cn2cncn2)c2ncccc2c1 (centres undefined)           -4.67
 1  Cc1ccc([C@@H]2CN(S(=O)(=O)C(C)C)C[C@H]2N(C)C)cc1           -6.03
 2  COc1cccc(OCCNC(=O)CN2CCN(C)CC2C)c1 (centres undefined)           -4.33
 3  CC(NC(=O)NCCCNS(C)(=O)=O)c1ccncc1 (centres undefined)           -4.34
 4  CS(=O)(=O)N1C[C@@H]2CC[C@H](C1)N(Cc1cscn1)C2=O           -4.04
 5  Cn1cc(S(=O)(=O)N2CCCC2CC(=O)c2cccs2)cn1 (centres undefined)            2.62
 6  COc1cc(N2C[C@@H]3COC[C@]3(COc3cccnc3)C2)ncn1           -4.12
 7  CC(NC(=O)Cn1cccn1)c1ccc2c(c1)OCCCO2 (centres undefined)           -2.38
 8      CNC(=O)c1cnc(/C=C/c2ccc(OC)c(O)c2)s1           -3.24
 9  O=C(CO)N1CCC(c2cncc(-c3cccc(Cl)c3)n2)CC1           -2.26
10   Cc1nccc(CN2CCC(c3nnsc3S(C)(=O)=O)CC2)n1           -3.04
11  CCN(c1ccc(C(=O)NCCCN2CCOCC2)cc1)S(=O)(=O)CC           -3.73
12   CN(Cc1cnn(C)c1)C(=O)NC1CCN(c2ncccn2)CC1           -7.21
13      O=C(NCc1ccccc1CN1CCC(O)CC1)Nc1ccncc1            5.78
14  CC(C)N1CCC(Cc2cncc(-c3ccccc3C(=O)O)n2)CC1           -3.85
15  Cc1nc2cc(=O)[nH]n2c(C)c1CC(=O)Nc1ccc2ccccc2n1           -3.58
16   O=C(c1cnccn1)N1CCc2ncnc(-c3cccnc3)c2CC1           -5.31
17        CCc1nc(NS(=O)(=O)c2ccc(C)cc2Cl)no1           -5.01
18            O=C(CCNC(=O)c1ccccc1)Nc1ccncc1            1.26
19      Cc1nc(-c2ccccc2)sc1C(=O)NCCNc1ncccn1           -4.03
20      c1cncc(COCc2nnc3n2CCN(Cc2ccsc2)C3)c1           -1.63
21    O=C1CC2(CCN(CCO)CC2)CN1Cc1cc(F)cc(F)c1           -3.75
22  CCn1c(C2CCCN(Cc3nccn3CCOC)C2)nn(C)c1=O (centres undefined)          -0.824
23  C=Cn1ncc(CN2C[C@@H]3CCCN3C[C@@H]2Cc2ccccc2)c1C           -3.58
